Tested on: UniProt O95136
Sequence (O95136 whole entry): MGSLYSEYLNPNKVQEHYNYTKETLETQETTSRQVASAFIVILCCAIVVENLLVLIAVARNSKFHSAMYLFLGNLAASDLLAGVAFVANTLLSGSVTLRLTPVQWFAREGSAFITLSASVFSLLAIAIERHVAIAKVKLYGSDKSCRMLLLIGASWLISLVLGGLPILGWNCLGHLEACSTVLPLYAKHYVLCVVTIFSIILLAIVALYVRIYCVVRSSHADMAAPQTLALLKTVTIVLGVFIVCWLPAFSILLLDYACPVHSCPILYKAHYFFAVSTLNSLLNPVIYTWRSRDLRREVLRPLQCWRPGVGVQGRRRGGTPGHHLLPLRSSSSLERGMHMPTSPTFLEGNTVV
Assay text: Binding affinity to S1PR2 (unknown origin) assessed as association constant measured for 60 secs by surface plasmon resonance assay
Cond: filed as antagonist, time 60.0 sec
Entries and their Ka

{"Chemical structure": "CCOc1cc(NC(=O)Nc2cc(Cl)nc(Cl)c2)cc(Cl)n1", "Ka": "1.96 10^5/M/s"}
{"Chemical structure": "Cc1cc(NC(=O)Nc2cc(Cl)nc(Cl)c2)n(C)n1", "Ka": "5.36 10^4/M/s"}
{"Chemical structure": "CNc1cc(C)nc(NNC(=O)Nc2cc(Cl)nc(Cl)c2)n1", "Ka": "5.56 10^4/M/s"}

The recorded Ka for "O=C(Nc1cc(Cl)nc(Cl)c1)Nc1cc(Cl)nc(Cl)c1" is 5.28 10^6/M/s

The recorded Ka for "O=C(Nc1cc(Cl)nc(Cl)c1)Nc1cc2ccc(Br)cn2n1" is 8.31 10^7/M/s

The recorded Ka for "Cn1ccc2c(-c3ccccc3)nc(NNC(=O)Nc3cc(Cl)nc(Cl)c3)nc21" is 5.21 10^4/M/s

The recorded Ka for "COc1c(Cl)cc(NC(=O)Nc2cc(Cl)nc(Cl)c2)cc1Cl" is 6.24 10^6/M/s

The recorded Ka for "O=C(Nc1cc(Cl)cc(Cl)c1)Nc1cc(Cl)nc(Cl)c1" is 3.26 10^4/M/s

The recorded Ka for "COc1cc(NC(=O)Nc2cc(Cl)nc(Cl)c2)cc(Cl)n1" is 3.21 10^5/M/s

The recorded Ka for "CN(C)c1nc(NNC(=O)Nc2cc(Cl)nc(Cl)c2)nc2c1ccn2C" is 7.55 10^4/M/s

The recorded Ka for "COc1ccc(-c2ccc3cc(NC(=O)Nc4cc(Cl)nc(Cl)c4)nn3c2)cc1" is 9.12 10^6/M/s

The recorded Ka for "CN1CCN(C(=O)Nc2cc(Cl)nc(Cl)c2)CC1" is 1.98 10^5/M/s

The recorded Ka for "O=C(Nc1cc(Cl)nc(Cl)c1)Nc1cc(Cl)nc(OC2CCCC2)c1" is 4.49 10^5/M/s

The recorded Ka for "O=C(Nc1cc(Cl)nc(Cl)c1)Nc1cc2ccccn2n1" is 7.93 10^6/M/s

The recorded Ka for "O=C(Nc1cc(Cl)nc(Cl)c1)Nc1cc2ccc(-c3ccccc3)cn2n1" is 4.59 10^6/M/s

The recorded Ka for "CC(C)Oc1cc(NC(=O)Nc2cc(Cl)nc(Cl)c2)cc(Cl)n1" is 9.14 10^5/M/s

The recorded Ka for "Cc1nn(C)c2nc(NNC(=O)Nc3cc(Cl)nc(Cl)c3)cc(C(C)C)c12" is 8.21 10^4/M/s

The recorded Ka for "O=C(NNc1nc(Nc2ccccc2)nc(N2CCCC2)n1)Nc1cc(Cl)nc(Cl)c1" is 7.15 10^5/M/s

The recorded Ka for "Cc1cc(NC(=O)Nc2cc(Cl)nc(Cl)c2)cc(C)n1" is 5.69 10^6/M/s

The recorded Ka for "O=C(Nc1ccnc(Cl)c1)Nc1cc(Cl)nc(Cl)c1" is 3.65 10^4/M/s

The recorded Ka for "O=C(NNc1nc(N2CCOCC2)c2ccn(C3CC3)c2n1)Nc1cc(Cl)nc(Cl)c1" is 6.12 10^4/M/s
